- RUN_DESCRIPTION: A qHTS for Small Molecule Inhibitors of Shiga Toxin; also: 0% is about no effect
- APPLIED_CONDITIONS: Vero cells, Shiga toxin protein synthesis inhibition reporter; at 38.7 µM, stronger effect = higher value
In all, about 290,000 compounds went through this assay and about 27,000 (9.3%) were called active. Shown is part of a subset that was picked to be rich in actives.
MEASUREMENT_TYPE: inhibition (%)
Number in %, nothing else.

Worked cases, answers included:
1. O=C(Nc1ccon1)c1cccc(Cl)c1 | 5.52
2. O=C(O)c1ccc(/C=N/NC(=O)c2ccc(Br)cc2)cc1 | 17.5
3. CCn1c(CC(=O)Nc2ccccc2)nnc1SCC(=O)N1CCOCC1 | -10.2
4. CC(C)n1cnc2c(Nc3cccc(Cl)c3)nc(N(CCO)CCCO)nc21 | -2.33

Ask: Entry CSc1nccc(NC(=O)c2ccc(C(C)(C)C)cc2)n1 has what inhibition?
Reply: 71.6

Ask: Dear colleague, I am looking for the recorded inhibition of the following compound: NS(=O)(=O)c1cccnc1Nc1cccc(Cl)c1
Reply: 15.1

Ask: For the compound Cc1ccc(NC(=S)Nc2ncccc2C)c(C)c1 , what inhibition is on record?
Reply: 54.2

Ask: inhibition for CCOC(=O)C1(CCOc2ccccc2)CCN(Cc2cc(OC)cc(OC)c2)CC1 ?
Reply: -16.1

Ask: Using the record for COc1ccc(S(=O)(=O)Nc2ccccc2C(=O)N2CCCC2)cc1C , report its inhibition.
Reply: 5.33

Ask: Look up inhibition for this compound: Cc1nc2nc(C)c(NS(=O)(=O)c3ccc(C(C)(C)C)cc3)c(=O)n2[nH]1
Reply: -4.52

Ask: May I ask what inhibition has been recorded for CCCCn1c(N)c(N(CC)C(=O)c2ccccc2C(F)(F)F)c(=O)[nH]c1=O ?
Reply: 3.43

Ask: Which inhibition reading was recorded for the compound Brc1ccc(-c2n(-c3ccccn3)c3ccccc3[n+]2-c2ccccn2)cc1 ?
Reply: 12.9

Ask: Would you kindly share the measured inhibition for NNC(=O)CNC(c1ccccc1)c1cc(Cl)ccc1NC(=O)c1ccccc1 (configuration not stated) ?
Reply: -4.52

Ask: Fill in the blank: the reported inhibition of O=C(CN1C(=O)c2ccccc2C1=O)NCc1ccc(C(=O)O)cc1 is ____.
Reply: 5.13

Ask: Fill in the blank: the reported inhibition of CN(CC1CCCO1)S(=O)(=O)c1ccc(C(=O)Nc2ccc(F)cc2)cc1 (configuration not stated) is ____.
Reply: 11.9

Ask: Consider the compound Cc1ccc2c(c1)N(CC(=O)N1CCCC(C)C1)C(=O)CO2 (configuration not stated) and give its measured inhibition.
Reply: 2.65

Ask: Using the record for COc1ccc(-c2cn3cccnc3n2)cc1 , report its inhibition.
Reply: 50.1

Ask: Please give the measured inhibition for this compound: Cc1nc2ccc(C(=O)N(C)CC3CCCN(CCc4ccc(Cl)cc4)C3)cc2[nH]1 (configuration not stated)
Reply: -8.28
